Hello, the source for this data is ChEMBL document CHEMBL1921735, in case you need it.

# Method description: Volume of distribution at steady state in Sprague-Dawley rat at 25 mg/kg, iv bolus
# Type: ADME, organism-based
# Set-up: dose 25 mg/kg, route intravenous
# Test conditions: in vivo, read-out: Vdss

{"Compound structure": "CNC(=O)C[C@@H]1NC(=O)c2csc(n2)-c2ccc(-c3nc(NC(=O)[C@H]4CC[C@H](C(=O)O)CC4)cs3)nc2-c2csc(n2)-c2csc(n2)[C@H]([C@@H](O)c2ccccc2)NC(=O)CNC(=O)c2nc(sc2COC)[C@H](C(C)C)NC(=O)c2nc1sc2C", "Vd": "< 0.1 L/kg"}

----------
# System: Enterococcus faecalis
# Method description: Antibacterial activity against Enterococcus faecalis ATCC 29212 by CLSI M07-A8 method
# Format: functional

{"Compound structure": "CNC(=O)C[C@@H]1NC(=O)c2csc(n2)-c2ccc(-c3nc(NC(=O)c4ccnc(C(=O)O)c4)cs3)nc2-c2csc(n2)-c2csc(n2)[C@H]([C@@H](O)c2ccccc2)NC(=O)CNC(=O)c2nc(sc2COC)[C@H](C(C)C)NC(=O)c2nc1sc2C", "System under test": "Enterococcus faecalis", "Relation sign": "=", "MIC / µg/mL": 2}
{"Compound structure": "CNC(=O)C[C@@H]1NC(=O)c2csc(n2)-c2ccc(-c3nc(NC(=O)CCCCN)cs3)nc2-c2csc(n2)-c2csc(n2)[C@H]([C@@H](O)c2ccccc2)NC(=O)CNC(=O)c2nc(sc2COC)[C@H](C(C)C)NC(=O)c2nc1sc2C", "System under test": "Enterococcus faecalis", "Relation sign": "=", "MIC / µg/mL": 0.5}
{"Compound structure": "CNC(=O)C[C@@H]1NC(=O)c2csc(n2)-c2ccc(-c3nc(NS(N)(=O)=O)cs3)nc2-c2csc(n2)-c2csc(n2)[C@H]([C@@H](O)c2ccccc2)NC(=O)CNC(=O)c2nc(sc2COC)[C@H](C(C)C)NC(=O)c2nc1sc2C", "System under test": "Enterococcus faecalis", "Relation sign": "=", "MIC / µg/mL": 2}
{"Compound structure": "CNC(=O)C[C@@H]1NC(=O)c2csc(n2)-c2ccc(-c3nc(NC(=O)CC[C@H](N)C(=O)O)cs3)nc2-c2csc(n2)-c2csc(n2)[C@H]([C@@H](O)c2ccccc2)NC(=O)CNC(=O)c2nc(sc2COC)[C@H](C(C)C)NC(=O)c2nc1sc2C", "System under test": "Enterococcus faecalis", "Relation sign": ">", "MIC / µg/mL": 32}
{"Compound structure": "CNC(=O)C[C@@H]1NC(=O)c2csc(n2)-c2ccc(-c3nc(NC(=O)C(C)(C)CCCC(C)(C)C(=O)O)cs3)nc2-c2csc(n2)-c2csc(n2)[C@H]([C@@H](O)c2ccccc2)NC(=O)CNC(=O)c2nc(sc2COC)[C@H](C(C)C)NC(=O)c2nc1sc2C", "System under test": "Enterococcus faecalis", "Relation sign": "=", "MIC / µg/mL": 1}
{"Compound structure": "CNC(=O)C[C@@H]1NC(=O)c2csc(n2)-c2ccc(-c3nc(NC(=O)CC(=O)O)cs3)nc2-c2csc(n2)-c2csc(n2)[C@H]([C@@H](O)c2ccccc2)NC(=O)CNC(=O)c2nc(sc2COC)[C@H](C(C)C)NC(=O)c2nc1sc2C", "System under test": "Enterococcus faecalis", "Relation sign": "=", "MIC / µg/mL": 1}
